Target: Heat shock protein HSP 90-alpha (Homo sapiens, UniProt P07900)
Assay: Binding affinity to recombinant human HSP90 alpha by Surface plasmon resonance analysis
Details: read-out: Kd
pKd: −log10 of the molar value.
Classification field: fulfilled = pKd at or over 7; not fulfilled = pKd under 7.

[
  {
    "compound": "CC1=C2C[C@]3(C)C(=O)C=C(C(C)C)[C@H]3C/C=C(/C)[C@@H]2CC1=O",
    "label value": "not fulfilled"
  },
  {
    "compound": "CC1=C2C[C@]3(C)CC[C@@H](C(C)C)[C@H]3C/C=C(/C)[C@@H]2CC1=O",
    "label value": "fulfilled"
  },
  {
    "compound": "CC1=C2C[C@]3(C)C(=O)C[C@@H](C(C)C)[C@H]3C/C=C(/C)[C@@H]2CC1=O",
    "label value": "not fulfilled"
  },
  {
    "compound": "C/C1=C/C[C@@H]2[C@H](C(C)C)CC(=O)[C@@]2(C)/C=C2/C(C)CCC12 (stereo not given in full)",
    "label value": "fulfilled"
  },
  {
    "compound": "CC1=CCC23OC4(C[C@]2(C)C(=O)C=C3C(C)C)[C@H](C)C(=O)C[C@@H]14 (stereo not given in full)",
    "label value": "not fulfilled"
  },
  {
    "compound": "CC(C)[C@@H]1CC(=O)[C@@]2(C)/C=C3\\C(CC[C@@]3(C)O)[C@]3(C)O[C@@H]3CC12 (stereo not given in full)",
    "label value": "fulfilled"
  },
  {
    "compound": "C=C1CC[C@H]2/C(C)=C\\C[C@@H]3[C@H](C(C)C)CC(=O)[C@@]3(C)C[C@@H]12",
    "label value": "not fulfilled"
  },
  {
    "compound": "CC1=C2C[C@]3(C)C(=O)C[C@@H](C(C)(C)O)[C@H]3C/C=C(/C)[C@@H]2CC1=O",
    "label value": "fulfilled"
  }
]
